# experimental protocol: NOD1 signaling inhibitors, primary screen, cell-based, luminescence, uHTS (AID 1578);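 further: HEK-293T reporter cells stimulated with the NOD1 agonist gamma-tri-DAP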
# cond: NOD1-driven NF-kB luciferase reporter cells, at 4 µM
Screen size: about 290,000 compounds; about 3,000 (1%) were called active. No stated cut-off is given here; in the data, active means inhibition mostly above about 36% (no sharp cut-off); inactive means mostly below about 34%. The full list was thinned out, with actives kept by preference.
// allowed return values: active, inactive

Examples with answers:
compound	group
O=C1c2ccccc2-c2c1cccc2C(=O)N1CCCCCC1	inactive
COc1cc(/C=C/C(=O)Nc2nc3ccc(S(=O)(=O)N(C)C)cc3s2)cc(OC)c1OC	inactive

INPUT: Given C=C1CCC[C@]2(C)C[C@H]3OC(=O)C(CN4CCOCC4)[C@H]3C[C@@H]12 (some centres not stated) , state the outcome it received in this test.
OUTPUT: inactive

INPUT: Given O=C(Nc1ncc([N+](=O)[O-])s1)c1ccc2c(c1)OCO2 , state the outcome it received in this test.
OUTPUT: active

INPUT: Given COCCn1c(C)cc(C2=NNC(=Nc3ccccc3)SC2)c1C , state the outcome it received in this test.
OUTPUT: inactive

INPUT: Given CCN1CCCC1CNC(=O)c1ccc(CS(=O)(=O)c2ccccc2C)o1 (configuration not stated) , state the outcome it received in this test.
OUTPUT: inactive

INPUT: Given COc1cccc(C(=O)NCCCNC(=O)c2cccc(OC)c2)c1 , state the outcome it received in this test.
OUTPUT: inactive

INPUT: Given CCN(CC(=O)NCc1ccc(Cl)cc1)C(=O)/C=C/c1ccc(Cl)c([N+](=O)[O-])c1 , state the outcome it received in this test.
OUTPUT: inactive

INPUT: Given O=C(c1cccc2c1-c1ccccc1/C2=N/O)N1CCCCC1 , state the outcome it received in this test.
OUTPUT: active

INPUT: Given Nc1nc(-c2ccccc2)c(C(=O)Nc2ccccc2)s1 , state the outcome it received in this test.
OUTPUT: inactive

INPUT: Given O=C(N/N=C/c1ccc(N2CCOCC2)cc1)c1ccccc1OCCOc1ccccc1 , state the outcome it received in this test.
OUTPUT: active

INPUT: Given COc1ccccc1C(=O)Nc1ccccc1C(=O)N1C(C)CCCC1C (configuration not stated) , state the outcome it received in this test.
OUTPUT: inactive

INPUT: Given Cc1cnc(NC(=O)c2c(-c3ccccc3)noc2C)s1 , state the outcome it received in this test.
OUTPUT: inactive

INPUT: Given O=C(CN(C(=O)CNS(=O)(=O)c1ccccc1)c1ccc2c(c1)OCCO2)NC1CCCCC1 , state the outcome it received in this test.
OUTPUT: inactive

INPUT: Given Cc1c(CCC(=O)NCCC(=O)O)c(=O)oc2cc3occ(-c4ccccc4)c3cc12 , state the outcome it received in this test.
OUTPUT: inactive

INPUT: Given Cc1sc2nc(SCC(=O)N(C)Cc3ccccc3)n(-c3ccccc3)c(=O)c2c1C , state the outcome it received in this test.
OUTPUT: inactive

INPUT: Given COc1ccc2cc(C#N)c(N3CCOCC3)nc2c1 , state the outcome it received in this test.
OUTPUT: inactive
